TESTED_TARGET: Human ST2-fc (human) (UniProt Q01638)
ASSAY_INFO: competition ELISA, coated ST2-fc, competitor IL33-his
Entries annotated with measured Relative activity (%) compared with CNTO7160

BINDER	VALUE_MEASURED
5886-156H+L (antibody, V domains shown, murine antibody) VH: DVQLQQSGPGLVKPSQSLSLTCTVTGYSITSDYAWNWIRQFPGNKLEWMGYIDYSGSTTYNPSLKSRFSITRDTSKNQFFLQLNSVTTEDTATYYCASTVIDSMDYWGQGTSVTVSS VL: DIVLTQSPASLAVSLGQRATISCRASKSVSTSGHSYMHWYQQKPGQPPKLLIYLASNLESGVPARFSGSGSGTDFTLNINPMEEEDAATYYCQHSREFPFTFGSGTKLEIK	76.6%
5888-357H+L (antibody, V domains shown, murine antibody) VH: QVQLQQSVTELVRPGASVTLSCKASGYRFTDSEMHWVKQTPVHGLEWIGTIDPETGGTVYNQKFKGKAKLTADRSSSTVSMELRSLTSEDSAVYYCTRAFYNDFDDGFAYWGQGTLVTVSA VL: QIVMTQSPAIMSASPGEKVTLTCSASTSVSYMHWYQQKSGTSPKRWIYDTSKLASGVPARFSGSGSGTSYSLTISSMEAEDAATYYCQQWSSNPLTFGAGTKLELK	94.7%

input: What value of Relative activity (%) compared with CNTO7160 has been recorded for this entry: 5887-537H3+L1 (antibody, V domains shown, murine antibody; also called 5887-537H3H+L1) VH: QVTLKESGPGILQPSQTLSLTCSFSGFSLSTSGMGVGWIRQPSGKGLEWLAHIWWDDVKQYNPALKSRLTISKDTSSSQVFLKSASVDTADTATYYCARIGGDYDYFDFWGQGTTLTVSS VL: DIVLTQSPASLAVSLGQRATISCRASESVEYSGTSLMQWYQQKPGQPPKLLIYVASNVESGVPARFSGSGSGTDFSLNIHPVEEDDIAMYFCQQSRKVPWTFGGGTKLEIK
output: 93.5%
